# target_entity: norepinephrine transporter (Homo sapiens, UniProt P23975)
# Construct: expressed in transfected cells; host or cells: HEK-293
# Sequence (P23975 whole entry, species assumed): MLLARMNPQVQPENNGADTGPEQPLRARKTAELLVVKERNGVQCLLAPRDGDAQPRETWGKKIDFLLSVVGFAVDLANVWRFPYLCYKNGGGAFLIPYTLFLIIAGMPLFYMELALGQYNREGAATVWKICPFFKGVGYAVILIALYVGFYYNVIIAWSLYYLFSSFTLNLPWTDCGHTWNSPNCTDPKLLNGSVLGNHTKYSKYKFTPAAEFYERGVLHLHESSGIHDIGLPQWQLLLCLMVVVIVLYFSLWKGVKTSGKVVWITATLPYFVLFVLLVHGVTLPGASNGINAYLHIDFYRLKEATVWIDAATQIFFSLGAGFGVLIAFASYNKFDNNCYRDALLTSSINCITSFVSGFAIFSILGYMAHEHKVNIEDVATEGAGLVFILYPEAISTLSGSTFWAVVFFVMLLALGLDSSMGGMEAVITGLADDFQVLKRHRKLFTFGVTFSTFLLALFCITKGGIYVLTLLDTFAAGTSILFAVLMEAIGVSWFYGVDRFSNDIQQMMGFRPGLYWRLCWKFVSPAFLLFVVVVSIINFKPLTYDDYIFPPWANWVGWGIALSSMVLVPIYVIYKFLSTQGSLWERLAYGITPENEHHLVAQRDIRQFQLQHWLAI
# assay_protocol: Norepinephrine reuptake inhibition in transporter-transfected HEK-293 cells ([3H]-NE)
# Assay type: cell-based
# run_conditions: compound 1 μM; [3H]-NE; relative to control without compound (100%), lower = more inhibition
# Method: To evaluate the reuptake inhibitory effect on dopamine, the dopamine transporter cDNA was transfected using the HEK-293 cell line, and then sub-seeded in a 24 well plate the next day. […] After dissolving the resultant in 1% SDS (0.5 ml), the degree of binding of radioisotope-labeled dopamine to the transporter was measured. […]
The following compounds are listed with their measured Triple reuptake inhibition (Ratio %) NET values.

compound: O=C(NCCN1CCC(Cc2ccccc2)CC1)C1CC1 [Example 69]
target_entity: norepinephrine transporter (Homo sapiens, UniProt P23975)
Triple reuptake inhibition (Ratio %) NET: 86.02%

Query: What value of Triple reuptake inhibition (Ratio %) NET on norepinephrine transporter (Homo sapiens, UniProt P23975) does O=C(NCCN1CCC(C(O)c2ccccc2)CC1)c1cc2ccccc2[nH]1 (stereo not drawn) [Example 36] have?
Result: 90.99%

Query: Query for norepinephrine transporter (Homo sapiens, UniProt P23975): what Triple reuptake inhibition (Ratio %) NET does the record show for O=C(NCCN1CCC(Cc2ccccc2)CC1)c1cc2cc(Br)ccc2[nH]1 [Example 30] ?
Result: 94.09%

Query: // lookup Triple reuptake inhibition (Ratio %) NET | system=norepinephrine transporter (Homo sapiens, UniProt P23975) | key= O=C(NCCN1CCC(Cc2ccc(Cl)c(Cl)c2)CC1)c1cc2cc(F)ccc2[nH]1 [Example 51]
Result: 83.07%

###

# target_entity: norepinephrine transporter (Homo sapiens)
# Construct: expressed in transfected cells; host or cells: HEK-293
# assay_protocol: Norepinephrine reuptake inhibition in transporter-transfected HEK-293 cells ([3H]-NE)
# Format: cell-based
# run_conditions: concentration at which Ratio % is 50%; 6 concentrations 1 nM to 1 μM; read-out: Triple reuptake inhibition (IC50, μM) NET
Quick reference for IC50 among some compounds

Here is how some compounds turned out for IC50.
compound: O=C(NCCN1CCC(Cc2ccccc2)CC1)c1cc2cc(Cl)ccc2[nH]1
measured: 4.35 µM
--
compound: O=C(NCCN1CCC(Cc2ccccc2)CC1)c1cc2ccccc2[nH]1 [Comparative Example 1, reference compound]
measured: 0.524 µM

Pending compound:
Query: What measured IC50 goes with `O=C(NCCN1CCC(Cc2ccccc2)CC1)c1cc2cc(F)c(F)cc2[nH]1` ?
Result: 1.47 µM

###

# target_entity: serotonin transporter (Homo sapiens, UniProt P31645)
# Construct: expressed in transfected cells; host or cells: HEK-293
# Sequence (P31645 whole entry): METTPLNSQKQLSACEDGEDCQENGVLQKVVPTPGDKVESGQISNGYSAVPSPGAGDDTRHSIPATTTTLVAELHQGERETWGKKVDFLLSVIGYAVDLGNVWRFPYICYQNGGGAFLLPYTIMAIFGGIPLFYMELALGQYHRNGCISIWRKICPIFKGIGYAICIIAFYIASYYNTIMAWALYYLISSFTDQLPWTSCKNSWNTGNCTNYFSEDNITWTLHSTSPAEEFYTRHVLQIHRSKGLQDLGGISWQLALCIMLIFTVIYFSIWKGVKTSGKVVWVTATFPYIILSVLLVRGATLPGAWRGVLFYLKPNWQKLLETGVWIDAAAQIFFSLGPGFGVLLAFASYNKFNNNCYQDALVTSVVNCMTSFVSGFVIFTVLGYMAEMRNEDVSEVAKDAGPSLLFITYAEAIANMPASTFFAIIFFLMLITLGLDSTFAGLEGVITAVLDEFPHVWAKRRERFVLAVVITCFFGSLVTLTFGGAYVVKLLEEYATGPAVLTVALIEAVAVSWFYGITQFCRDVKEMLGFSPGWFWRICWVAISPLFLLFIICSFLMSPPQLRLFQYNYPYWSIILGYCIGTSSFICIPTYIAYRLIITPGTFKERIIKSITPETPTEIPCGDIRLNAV
# assay_protocol: Serotonin reuptake inhibition in transporter-transfected HEK-293 cells ([3H]-5-HT)
# Format: cell-based
# run_conditions: compound 1 μM; [3H]-5-HT; relative to control without compound (100%), lower = more inhibition
The threshold is inclusive: Triple reuptake inhibition (Ratio %) SERT of exactly 90% counts as yes; values below receive no.

Answered cases to consult:
compound: O=C(NCCN1CCC(Cc2ccc(Cl)c(Cl)c2)CC1)c1cc(Cl)cc(Cl)c1
group_label: no
--
compound: O=C(NCCN1CCN(Cc2ccccc2)CC1)c1ccc(Cl)c(Cl)c1
group_label: yes
--
compound: O=C(NCCN1CCC(Cc2ccccc2)CC1)c1ccccn1
group_label: no

Query: Form field: Triple reuptake inhibition (Ratio %) SERT at least 90%? Entry: `O=C(CCC(=O)N1CCC(Cc2ccccc2)CC1)Nc1cc2ccccc2[nH]1`
Result: yes

Query: Please check the record `O=C(NCCN1CCC(Cc2ccccc2)CC1)c1ccc(Cl)c(Cl)c1` and state if its Triple reuptake inhibition (Ratio %) SERT is at or above 90%.
Result: no

Query: Check this compound for Triple reuptake inhibition (Ratio %) SERT at or above 90%: `COc1cc2cc(C(=O)NCCN3CCC(Cc4ccccc4)CC3)[nH]c2cc1OC`
Result: no

Query: Form field: Triple reuptake inhibition (Ratio %) SERT at least 90%? Entry: `O=C(NC1(CN2CCC(Cc3ccccc3)CC2)CC1)c1cc2ccccc2[nH]1`
Result: yes
